target: M. fascicularis KLB and human FGFR1c co-expressed on HEK293/MfKLB/hFGFR1c/SRE-Luc cells (M. fascicularis; human, UniProt A0A2K5WB58 1-1044); experiment: cell-based or functional assay
Sequence (chain, as listed by the source, chain 1 of 2): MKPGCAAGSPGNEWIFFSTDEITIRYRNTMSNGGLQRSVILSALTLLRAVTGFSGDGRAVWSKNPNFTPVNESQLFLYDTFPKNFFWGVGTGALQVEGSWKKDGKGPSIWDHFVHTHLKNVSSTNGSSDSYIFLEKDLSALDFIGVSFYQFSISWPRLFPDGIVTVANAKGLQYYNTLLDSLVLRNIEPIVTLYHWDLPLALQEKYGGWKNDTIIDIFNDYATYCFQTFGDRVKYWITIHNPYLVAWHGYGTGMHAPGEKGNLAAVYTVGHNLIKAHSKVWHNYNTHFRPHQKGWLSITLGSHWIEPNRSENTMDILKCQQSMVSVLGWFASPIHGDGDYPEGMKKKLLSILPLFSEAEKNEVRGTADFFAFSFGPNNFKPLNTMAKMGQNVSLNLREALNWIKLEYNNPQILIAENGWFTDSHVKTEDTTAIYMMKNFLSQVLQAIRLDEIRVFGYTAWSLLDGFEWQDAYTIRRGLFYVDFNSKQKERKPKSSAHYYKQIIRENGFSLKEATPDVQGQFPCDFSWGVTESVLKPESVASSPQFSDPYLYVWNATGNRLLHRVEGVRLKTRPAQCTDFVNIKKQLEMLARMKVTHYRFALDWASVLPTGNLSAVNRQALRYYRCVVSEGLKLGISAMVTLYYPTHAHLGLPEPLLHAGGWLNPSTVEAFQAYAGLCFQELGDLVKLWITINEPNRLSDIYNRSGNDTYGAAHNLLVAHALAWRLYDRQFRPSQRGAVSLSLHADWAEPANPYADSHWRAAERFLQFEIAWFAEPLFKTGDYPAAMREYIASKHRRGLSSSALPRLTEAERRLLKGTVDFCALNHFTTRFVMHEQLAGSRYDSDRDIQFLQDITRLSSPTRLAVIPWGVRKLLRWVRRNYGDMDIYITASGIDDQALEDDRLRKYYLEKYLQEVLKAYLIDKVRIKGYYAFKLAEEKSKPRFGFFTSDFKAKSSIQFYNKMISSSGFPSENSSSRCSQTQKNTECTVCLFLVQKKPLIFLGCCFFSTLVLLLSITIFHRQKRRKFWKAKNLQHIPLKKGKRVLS
Sequence (chain, as listed by the source, chain 2 of 2): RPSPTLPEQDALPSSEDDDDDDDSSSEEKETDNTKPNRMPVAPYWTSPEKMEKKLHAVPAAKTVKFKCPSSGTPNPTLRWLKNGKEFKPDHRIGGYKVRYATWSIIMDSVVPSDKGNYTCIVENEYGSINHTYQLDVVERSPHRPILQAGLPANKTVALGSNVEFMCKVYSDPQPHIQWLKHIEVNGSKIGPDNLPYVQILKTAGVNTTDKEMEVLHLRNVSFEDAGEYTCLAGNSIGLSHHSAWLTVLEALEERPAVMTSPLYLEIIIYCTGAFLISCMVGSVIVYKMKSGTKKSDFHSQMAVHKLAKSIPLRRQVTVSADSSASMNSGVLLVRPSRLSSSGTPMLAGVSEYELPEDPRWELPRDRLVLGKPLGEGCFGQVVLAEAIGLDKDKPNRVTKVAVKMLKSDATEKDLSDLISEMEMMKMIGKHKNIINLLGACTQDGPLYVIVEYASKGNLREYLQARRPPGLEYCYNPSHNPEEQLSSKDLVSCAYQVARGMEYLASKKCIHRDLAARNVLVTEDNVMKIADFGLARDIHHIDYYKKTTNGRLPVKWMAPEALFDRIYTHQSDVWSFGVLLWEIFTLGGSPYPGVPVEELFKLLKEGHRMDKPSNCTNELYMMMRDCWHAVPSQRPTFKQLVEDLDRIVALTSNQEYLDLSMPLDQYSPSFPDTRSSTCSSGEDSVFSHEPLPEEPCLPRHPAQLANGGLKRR
measured_endpoint: EC50, SRE-luc activation without ligand

EC50, SRE-luc activation without ligand in this record for H4H8852P (antibody, V domains shown, human IgG4 Fc (H4H prefix)) VH: QVQLQESGPGLVKPSETLSLTCTVSGGSISSYYWSWIRQPPGKGLEWIGYIYSSGIIKYNPSLKSRVTISADTSKNQFSLKLSSVTAADTAVYYCARHGIFGVMEYFQRWGQGTLVTVSS VL: DIQMTQSPSSLSASIGDRVTITCQASQDIGNFLNWYQQKPGKAPTLLIYDASNMETGVPSRFSGSGSGTYFTFTISSLQPEDVATYYCQQYDNLPLTFGGGTKVEIK : 0.046 nM

// provenance: patent US20170174769A1
